Target: CYP2C8 (Homo sapiens, UniProt P10632)
Construct: human liver microsomes from a pool of 200 individuals; from tissue; host or cells: human liver microsomes, pool of 200 individuals
Sequence (P10632 1-490): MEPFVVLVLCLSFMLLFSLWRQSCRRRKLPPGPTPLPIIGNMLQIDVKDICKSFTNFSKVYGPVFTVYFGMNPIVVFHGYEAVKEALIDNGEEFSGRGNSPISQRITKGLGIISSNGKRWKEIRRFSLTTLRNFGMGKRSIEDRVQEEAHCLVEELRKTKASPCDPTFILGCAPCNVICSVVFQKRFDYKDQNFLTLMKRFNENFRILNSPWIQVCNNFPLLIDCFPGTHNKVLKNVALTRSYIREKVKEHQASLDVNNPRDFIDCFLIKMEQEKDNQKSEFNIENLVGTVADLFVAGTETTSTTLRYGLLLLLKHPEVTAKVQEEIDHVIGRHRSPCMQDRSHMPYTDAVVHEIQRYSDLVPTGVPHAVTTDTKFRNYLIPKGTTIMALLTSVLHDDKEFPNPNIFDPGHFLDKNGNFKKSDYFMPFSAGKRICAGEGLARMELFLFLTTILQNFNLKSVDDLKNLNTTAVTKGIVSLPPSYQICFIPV
Test: Direct inhibition of CYP activity in human liver microsomes
Assay type: in vitro ADME
Text: Known metabolism-dependent and/or direct inhibitors of CYP and UGT enzymes were included as positive controls, as applicable.
metric_name: inhibition at 10 µM

Value of measured inhibition at 10 µM for the entry "O=C(O)C[C@H]1CCc2c1[nH]c1ccc(OCc3ccc(C4CCCC4)c(C(F)(F)F)c3)cc21" : ~100%

----------
Target: P-gp (Homo sapiens)
Sequence (P08183 whole entry): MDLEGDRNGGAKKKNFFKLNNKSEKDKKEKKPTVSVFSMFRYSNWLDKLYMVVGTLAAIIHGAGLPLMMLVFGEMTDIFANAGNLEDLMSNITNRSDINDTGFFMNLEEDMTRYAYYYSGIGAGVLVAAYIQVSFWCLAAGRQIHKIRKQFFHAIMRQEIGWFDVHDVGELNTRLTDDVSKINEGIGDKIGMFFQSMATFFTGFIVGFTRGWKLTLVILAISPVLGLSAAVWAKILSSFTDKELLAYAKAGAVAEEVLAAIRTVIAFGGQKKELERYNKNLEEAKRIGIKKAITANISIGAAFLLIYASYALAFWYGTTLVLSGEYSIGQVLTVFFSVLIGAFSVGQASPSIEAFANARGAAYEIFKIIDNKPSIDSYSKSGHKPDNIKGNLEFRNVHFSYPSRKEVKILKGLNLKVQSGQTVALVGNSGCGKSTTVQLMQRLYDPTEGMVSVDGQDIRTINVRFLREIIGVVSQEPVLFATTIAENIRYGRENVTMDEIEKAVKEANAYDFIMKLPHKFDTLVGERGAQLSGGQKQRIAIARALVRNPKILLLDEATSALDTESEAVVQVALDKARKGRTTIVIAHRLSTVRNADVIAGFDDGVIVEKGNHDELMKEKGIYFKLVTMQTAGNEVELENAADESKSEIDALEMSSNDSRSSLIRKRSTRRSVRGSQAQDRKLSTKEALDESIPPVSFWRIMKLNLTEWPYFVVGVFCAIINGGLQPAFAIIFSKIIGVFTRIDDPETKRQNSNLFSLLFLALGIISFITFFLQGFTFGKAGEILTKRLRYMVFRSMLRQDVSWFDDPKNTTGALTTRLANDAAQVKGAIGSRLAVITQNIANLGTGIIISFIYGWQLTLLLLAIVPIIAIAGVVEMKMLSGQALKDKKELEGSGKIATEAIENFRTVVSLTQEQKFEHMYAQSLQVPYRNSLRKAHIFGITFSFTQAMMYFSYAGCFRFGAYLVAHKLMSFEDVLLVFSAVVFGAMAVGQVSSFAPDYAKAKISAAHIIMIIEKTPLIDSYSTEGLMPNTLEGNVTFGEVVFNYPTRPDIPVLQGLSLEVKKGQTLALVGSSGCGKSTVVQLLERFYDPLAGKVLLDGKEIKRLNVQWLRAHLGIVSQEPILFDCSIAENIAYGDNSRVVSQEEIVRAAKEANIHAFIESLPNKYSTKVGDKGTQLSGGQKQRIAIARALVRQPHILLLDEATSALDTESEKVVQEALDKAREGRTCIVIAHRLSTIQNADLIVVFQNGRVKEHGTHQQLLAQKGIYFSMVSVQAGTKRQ
metric_name: IC50

Tested on P-gp (Homo sapiens), the item O=C(O)C[C@H]1CCc2c1[nH]c1ccc(OCc3ccc(C4CCCC4)c(C(F)(F)F)c3)cc21 [Compound 1] showed IC50 equal to ~100 µM

----------
Target: OAT3 (Homo sapiens, UniProt Q8TCC7)
Construct: expressed in transfected cells; host or cells: HEK293
Sequence (Q8TCC7 whole entry): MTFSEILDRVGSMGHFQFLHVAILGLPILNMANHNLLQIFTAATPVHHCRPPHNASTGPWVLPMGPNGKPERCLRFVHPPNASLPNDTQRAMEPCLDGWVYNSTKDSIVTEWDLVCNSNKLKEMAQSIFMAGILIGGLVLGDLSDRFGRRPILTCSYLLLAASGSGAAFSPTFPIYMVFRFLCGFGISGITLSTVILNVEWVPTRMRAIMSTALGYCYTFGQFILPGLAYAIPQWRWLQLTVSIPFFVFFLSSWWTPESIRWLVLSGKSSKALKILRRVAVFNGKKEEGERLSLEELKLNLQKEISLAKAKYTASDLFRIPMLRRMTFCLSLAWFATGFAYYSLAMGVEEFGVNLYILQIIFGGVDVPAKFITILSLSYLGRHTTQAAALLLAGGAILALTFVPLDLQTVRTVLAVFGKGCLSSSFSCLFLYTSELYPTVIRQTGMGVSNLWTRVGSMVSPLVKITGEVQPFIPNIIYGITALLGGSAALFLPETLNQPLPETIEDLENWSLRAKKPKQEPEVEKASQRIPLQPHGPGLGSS
Assay: Transporter inhibition, HEK293 cells
Assay type: in vitro ADME
Conditions: HEK293 cells, [3H]-estrone-3-sulfate (50 nM), 1 and 10 μM tested
metric_name: IC50

What the record says about O=C(O)C[C@H]1CCc2c1[nH]c1ccc(OCc3ccc(C4CCCC4)c(C(F)(F)F)c3)cc21 [Compound 1] : IC50 is > 10 µM

----------
Target: BSEP (Homo sapiens, UniProt O95342)
Sequence (O95342 whole entry): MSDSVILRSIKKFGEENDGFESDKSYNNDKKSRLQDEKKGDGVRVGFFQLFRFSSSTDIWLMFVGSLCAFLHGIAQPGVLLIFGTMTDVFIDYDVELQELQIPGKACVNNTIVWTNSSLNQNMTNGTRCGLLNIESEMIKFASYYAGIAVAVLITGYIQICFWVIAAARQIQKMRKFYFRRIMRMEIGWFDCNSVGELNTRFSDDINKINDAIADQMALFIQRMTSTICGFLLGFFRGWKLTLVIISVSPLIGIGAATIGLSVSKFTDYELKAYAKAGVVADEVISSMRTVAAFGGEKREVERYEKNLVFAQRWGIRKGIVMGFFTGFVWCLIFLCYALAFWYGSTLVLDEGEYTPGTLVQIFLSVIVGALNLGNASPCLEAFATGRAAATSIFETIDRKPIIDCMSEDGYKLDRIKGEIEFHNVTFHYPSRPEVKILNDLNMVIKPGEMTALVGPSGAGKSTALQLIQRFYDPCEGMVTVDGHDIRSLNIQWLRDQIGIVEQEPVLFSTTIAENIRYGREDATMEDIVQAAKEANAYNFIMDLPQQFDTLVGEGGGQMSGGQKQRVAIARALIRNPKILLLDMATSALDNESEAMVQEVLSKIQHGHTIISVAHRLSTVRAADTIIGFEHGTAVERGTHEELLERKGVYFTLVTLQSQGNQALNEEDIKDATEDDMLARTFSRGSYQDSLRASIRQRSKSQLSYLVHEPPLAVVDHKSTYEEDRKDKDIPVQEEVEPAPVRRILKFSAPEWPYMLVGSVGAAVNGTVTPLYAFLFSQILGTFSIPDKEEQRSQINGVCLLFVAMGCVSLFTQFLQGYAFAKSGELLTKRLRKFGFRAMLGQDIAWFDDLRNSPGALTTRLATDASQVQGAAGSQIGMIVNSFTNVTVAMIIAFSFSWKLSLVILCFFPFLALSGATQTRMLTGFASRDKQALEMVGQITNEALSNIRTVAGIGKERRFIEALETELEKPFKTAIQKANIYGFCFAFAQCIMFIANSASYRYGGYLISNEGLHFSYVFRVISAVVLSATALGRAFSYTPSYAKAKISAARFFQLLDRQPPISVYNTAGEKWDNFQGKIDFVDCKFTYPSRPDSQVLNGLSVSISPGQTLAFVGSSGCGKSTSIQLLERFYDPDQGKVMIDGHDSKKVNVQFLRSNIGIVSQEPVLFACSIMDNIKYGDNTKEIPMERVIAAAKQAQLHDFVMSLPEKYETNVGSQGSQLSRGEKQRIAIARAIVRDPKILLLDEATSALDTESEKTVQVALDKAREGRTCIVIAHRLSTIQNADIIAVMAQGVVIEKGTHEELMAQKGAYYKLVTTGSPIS
pIC50: −log10 of the molar value.
metric_name: pIC50

Reported pIC50 (BSEP (Homo sapiens, UniProt O95342)) for entry "O=C(O)C[C@H]1CCc2c1[nH]c1ccc(OCc3ccc(C4CCCC4)c(C(F)(F)F)c3)cc21" is < 5.00
